Target: KIAA0368
Assay: pooled miR-30 sensor sort-seq; sequence = guide strand; further: reference of the scale not given here
Settings: shRNA
readout: sensor-assay potency score (higher = more potent)

1. TTTATTTAAAATCACATCCAAC
-1.25
2. TTTAACTTGACTCTTGTACTGA
0.641
3. TTGAATAGCAAGTCGAGTCTCA
0.314
4. TTCTGTAGCACTCTGAATGAGT
-0.327

---

Molecular target: FAM163B
Experiment: pooled miR-30 sensor sort-seq; sequence = guide strand
Details: shRNA
readout: sensor-assay potency score (higher = more potent)

1. TTGGTCAGCACCAGGTTGCGGT
-0.802
2. TAGCACAGAACAGCGATGATGC
-0.556
3. TTGCGGTTGGAGTGCAGCGGGG
-1.47
4. TCCGACTCGTCCTTCTTGCAGC
-1.44
5. TAGAGCACGCGCTCCCCGCCGT
-0.76
6. TCGCAGTGGGAGCAGCTGCGGC
-1.52

---

Biological target: SNRPD1
Experiment: pooled miR-30 sensor sort-seq; sequence = guide strand
Details: shRNA
Label criterion met for high-side sensor-assay potency score (higher = more potent) (at or above -0.3) and criterion not met for low-side sensor-assay potency score (higher = more potent) (below it).

1. TCTGGTAGAATAAAATACCGAA
criterion met
2. TCAACATCCACAAGTAGTGTAT
criterion met
3. TTCAACATCCACAAGTAGTGTA
criterion met
4. TGTGATTGTTCCATGGACCTGT
criterion met
5. TTAAGATGTGTATTCATGCTGA
criterion met
6. TAGATTTCACCTTAGGTTCAAC
criterion not met
7. TCATGCTGACATCCACACCTGT
criterion not met
8. TACAGGTTCTCTGTTCTTCAGG
criterion not met
9. TATCCAGAGGTAAACTGTCTGG
criterion not met

---

Target: REPS2
Assay: pooled miR-30 sensor sort-seq; sequence = guide strand
Settings: shRNA
Use -0.8 as the dividing line for sensor-assay potency score (higher = more potent), with the line itself on the true side and lower values as false.

1) TAGTACTTTTCAAAGCTTGTTT
true
2) TTCTTTGACATCATAAAGCGAG
false
3) ATTGACATAGTACTCGCGCTGT
true
4) TTCTGTGATCTGGTGCAGCGTC
true
5) TTCTTGATGAACCTCCTTGAGC
false
6) TGTTCTTCTGTTATCCTCCAGG
true

---

Target: NEK11
Experiment: pooled miR-30 sensor sort-seq; sequence = guide strand
Details: shRNA
Rule: criterion met for sensor-assay potency score (higher = more potent) not less than -0.6, criterion not met for anything less.

1) TTCGCTAGCATTCTGATGCCTT
criterion met
2) ATGGAGTACATCAACACTCAGC
criterion not met
3) TTTTGTTGAAGCACGTATCTTC
criterion met
4) TACATCAACACTCAGCTGCTGA
criterion met
5) TTCTCTGGTCTTTCTAACGCTA
criterion met
6) TTCCTGAATTTTATCGTCCAGA
criterion not met
7) TATATGAGCAGCCTCCTTCTGA
criterion not met
8) TTTTCTGTACTTCTGACAGTGC
criterion met

---

Target: LHFPL3
Assay: pooled miR-30 sensor sort-seq; sequence = guide strand
Conditions: shRNA
I would appreciate it if you labelled entries condition met when sensor-assay potency score (higher = more potent) is -0.7 or higher, otherwise condition not met.

1. TTAGTTGTTAACTACTTCCAGA
condition not met
2. TATCTTGTACACAGTGGCCGTG
condition met
3. TTAAACAGAACACAGACTTGGT
condition met
4. TTTACTTCATCTGAGTCCCAGC
condition met
5. ATATCTTGTACACAGTGGCCGT
condition not met
6. TAGCCTATAATATTACACGTGA
condition met
